Molecular target: T1, ZIKV (prM80E) with a C-terminal myc-myc-hexahistidine tag (Zika virus, UniProt A0A024B7W1 104-694)
T1 construct: also called ZIKV (prM80E)-mmH; ZIKV-mmH
Test: SPR, mAb captured, 25C

Binder	kon (M⁻¹ s⁻¹)
H4H25704N (antibody, V domains shown) VH: QVQLVESGGGVVQSGRSLRLSCAASGFTFIYYGMHWVRQAPGKGLEWVAVISYDGSDRYYADSVKGRFTISRDDSKNTLYLQMNSLRPEDTAVYYCAKDRGGRFDYWGQGTLVTVSS VL: EIVLTQSPGTLSLSPGERATLSCRASQSVNNNYLAWYQQKPGQAPRLLIYGASSRATGIPDRFGGGGSGTDFTLTISRLEPEDFAVYYCQRYGNSPLTFGGGTKVEIK	1.33e+06
H4H25591P (antibody, V domains shown) VH: QVQLVESGGGVVQPGRSLRLSCAASGFTFSYSGMHWVRQAPGKGLEWVAVISYDGINKYYADSVKGRFTISRDNSKNTLYLQMNSLRPEDTAVYYCAKDRGGRFDPWGQGTLVTVSS VL: DIQMTQSPSSLSASVGDRVTITCRASQGISNYLAWYQQKPGKVPNLLIYGASTLHSGVPSRFSGSGSGTDFTLTISSLQPADVATYYCQKYNSAPLTFGGGTKVEIK	649000
